Data credit: the supplement of paper PMC10567573

B1: PLAGL1 (parent)
chain: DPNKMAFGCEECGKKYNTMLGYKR

# Variants of: B1
# experimental_details: protein stability index of a GFP-peptide fusion (GPS, HEK-293T) (PSI 1-6); higher = more stable;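 further: lentivirally expressed fusions sorted by FACS into six bins by GFP to DsRed ratio, PSI derived from sequencing read proportions per bin multiplied by bin number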
# stated_conditions: c terminus: a fixed tail appended
measured_parameter: protein stability index
// response body must contain only the number

Consider the reported protein stability index for these variants:
DPMKMAFGCEECGKKYNTMLGYKR [N3M]; 2.82
DPNKMAFGVEECGKKYNTMLGYKR [C9V]; 4.21

-- ask Give the reported protein stability index for this variant. SPNKMAFGCEECGKKYNTMLGYKR [D1S]
-- reply 2.05

-- ask Return value of protein stability index for input DPNKMAFGCEECGKKYNTMLGYYR [K23Y] , no commentary.
-- reply 2.22

-- ask Look up and state reported protein stability index for DPNKMAFGCEECGKKDNTMLGYKR [Y16D]
-- reply 2.88

-- ask Look up and state reported protein stability index for DPNKMAFGCEECGKKYQTMLGYKR [N17Q]
-- reply 2.73

-- ask State its protein stability index: DPNKHAFGCEECGKKYNTMLGYKR [M5H]
-- reply 2.73

-- ask Look up protein stability index of DPNKMAFGCEECGKKYNSMLGYKR [T18S] and report it.
-- reply 2.39

-- ask Return reported protein stability index. Input variant: DPRKMAFGCEECGKKYNTMLGYKR [N3R]
-- reply 2.25

-- ask Please look at this variant and report its protein stability index: DPNKMAFGCEEIGKKYNTMLGYKR [C12I]
-- reply 2.6

-- ask Let me know recorded protein stability index for DPNKMAFGCEECGAKYNTMLGYKR [K14A] , thanks.
-- reply 2.93
